Numbers sourced from paper PMC12553364.

target: crizotinib metabolism in rat liver microsomes (RLM); experiment: Inhibition of crizotinib metabolism by tropifexor in RLM (IC50, Lineweaver-Burk); conditions: n = 3
pKi: −log10 of the molar value.

- compound: "O=C(O)c1cc(F)c2nc(N3[C@@H]4CC[C@H]3C[C@@H](OCc3c(-c5ccccc5OC(F)(F)F)noc3C3CC3)C4)sc2c1 [tropifexor, Tropifexor]"
  subjectOfTest: "crizotinib metabolism in rat liver microsomes (RLM)"
  pKi: 5.25

* * *

experiment: In vivo pharmacokinetic interaction study in Sprague-Dawley rats; details: male, Sprague-Dawley, rat, plasma, po, 25 mg/kg, group Crizotinib + Tropifexor: oral tropifexor 20 µg/kg 30 min before oral crizotinib 25 mg/kg, rat plasma, n = 5, mean ± S.D.

- molecule: "C[C@@H](Oc1cc(-c2cnn(C3CCNC(=O)C3)c2)cnc1N)c1c(Cl)ccc(F)c1Cl (some centres unmarked) [2-Keto crizotinib]"
  Cmax [ng/mL]: 74.3
- molecule: "C[C@@H](Oc1cc(-c2cnn(C3CCNCC3)c2)cnc1N)c1c(Cl)ccc(F)c1Cl [crizotinib, Crizotinib]"
  Cmax [ng/mL]: 326

* * *

experiment: in vitro; conditions: human, human liver microsomes, pH 7.4, Km of crizotinib, HLM 0.3 mg/mL, 1 mM NADPH, 0.1–50 µM crizotinib

- compound: "C[C@@H](Oc1cc(-c2cnn(C3CCNCC3)c2)cnc1N)c1c(Cl)ccc(F)c1Cl [crizotinib, Crizotinib]"
  Km at 30 min [µM]: 15

* * *

experiment: In vivo pharmacokinetic interaction study in Sprague-Dawley rats; conditions: male, Sprague-Dawley, rat, plasma, po, 25 mg/kg, group Crizotinib alone: single oral crizotinib 25 mg/kg, rat plasma, n = 5, mean ± S.D.; read-out: CLz/F (converted)

- compound: "C[C@@H](Oc1cc(-c2cnn(C3CCNCC3)c2)cnc1N)c1c(Cl)ccc(F)c1Cl"
  CL/F, mL/min/kg: 102
- compound: "C[C@@H](Oc1cc(-c2cnn(C3CCNC(=O)C3)c2)cnc1N)c1c(Cl)ccc(F)c1Cl (some centres unmarked)"
  CL/F, mL/min/kg: 704

* * *

Entries annotated with measured AUC(0-inf)
assay: In vivo pharmacokinetic interaction study in Sprague-Dawley rats; settings: male, Sprague-Dawley, rat, plasma, po, 25 mg/kg, group Crizotinib alone: single oral crizotinib 25 mg/kg, rat plasma, n = 5, mean ± S.D.
attributeMeasured: AUC(0-inf) (µg·h/mL)

- compound: "C[C@@H](Oc1cc(-c2cnn(C3CCNCC3)c2)cnc1N)c1c(Cl)ccc(F)c1Cl"
  attributeMeasured: "AUC(0-inf)"
  unit: "µg·h/mL"
  measuredResult: 4.14
- compound: "C[C@@H](Oc1cc(-c2cnn(C3CCNC(=O)C3)c2)cnc1N)c1c(Cl)ccc(F)c1Cl (some centres unmarked)"
  attributeMeasured: "AUC(0-inf)"
  unit: "µg·h/mL"
  measuredResult: 0.605

* * *

test: In vivo pharmacokinetic interaction study in Sprague-Dawley rats; conditions: male, Sprague-Dawley, rat, plasma, po, 25 mg/kg, group Crizotinib alone: single oral crizotinib 25 mg/kg, rat plasma, n = 5, mean ± S.D.

- compound: "C[C@@H](Oc1cc(-c2cnn(C3CCNCC3)c2)cnc1N)c1c(Cl)ccc(F)c1Cl"
  AUC(0-t) [ng·h/mL]: 4100
- compound: "C[C@@H](Oc1cc(-c2cnn(C3CCNC(=O)C3)c2)cnc1N)c1c(Cl)ccc(F)c1Cl (some centres unmarked)"
  AUC(0-t) [ng·h/mL]: 603

* * *

assay: In vivo pharmacokinetic interaction study in Sprague-Dawley rats; settings: male, Sprague-Dawley, rat, plasma, po, 25 mg/kg, group Crizotinib + Tropifexor: oral tropifexor 20 µg/kg 30 min before oral crizotinib 25 mg/kg, rat plasma, n = 5, mean ± S.D.; read-out: CLz/F (converted)

- compound: "C[C@@H](Oc1cc(-c2cnn(C3CCNC(=O)C3)c2)cnc1N)c1c(Cl)ccc(F)c1Cl (some centres unmarked)"
  unit: "mL/min/kg"
  CL/F: 507
- compound: "C[C@@H](Oc1cc(-c2cnn(C3CCNCC3)c2)cnc1N)c1c(Cl)ccc(F)c1Cl"
  unit: "mL/min/kg"
  CL/F: 76

* * *

assay: In vivo pharmacokinetic interaction study in Sprague-Dawley rats; conditions: male, Sprague-Dawley, rat, plasma, po, 25 mg/kg, group Crizotinib alone: single oral crizotinib 25 mg/kg, rat plasma, n = 5, mean ± S.D.
attributeMeasured: Tmax (h)

- compound: "C[C@@H](Oc1cc(-c2cnn(C3CCNC(=O)C3)c2)cnc1N)c1c(Cl)ccc(F)c1Cl (some centres unmarked)"
  measuredResult: 8
- compound: "C[C@@H](Oc1cc(-c2cnn(C3CCNCC3)c2)cnc1N)c1c(Cl)ccc(F)c1Cl"
  measuredResult: 8.8

* * *

assay: in vitro; details: rat, rat liver microsomes, pH 7.4

- mol: "C[C@@H](Oc1cc(-c2cnn(C3CCNCC3)c2)cnc1N)c1c(Cl)ccc(F)c1Cl"
  unit: "µM"
  Km at 30 min: 1

* * *

target: crizotinib metabolism in human liver microsomes (HLM) (Homo sapiens); assay: Inhibition of crizotinib metabolism by tropifexor in HLM (IC50, Lineweaver-Burk); assay type: in vitro ADME; conditions: human, liver microsomes, pH 7.4, IC50 of tropifexor on crizotinib metabolism, crizotinib at Km
Sequence (P08684 2-503): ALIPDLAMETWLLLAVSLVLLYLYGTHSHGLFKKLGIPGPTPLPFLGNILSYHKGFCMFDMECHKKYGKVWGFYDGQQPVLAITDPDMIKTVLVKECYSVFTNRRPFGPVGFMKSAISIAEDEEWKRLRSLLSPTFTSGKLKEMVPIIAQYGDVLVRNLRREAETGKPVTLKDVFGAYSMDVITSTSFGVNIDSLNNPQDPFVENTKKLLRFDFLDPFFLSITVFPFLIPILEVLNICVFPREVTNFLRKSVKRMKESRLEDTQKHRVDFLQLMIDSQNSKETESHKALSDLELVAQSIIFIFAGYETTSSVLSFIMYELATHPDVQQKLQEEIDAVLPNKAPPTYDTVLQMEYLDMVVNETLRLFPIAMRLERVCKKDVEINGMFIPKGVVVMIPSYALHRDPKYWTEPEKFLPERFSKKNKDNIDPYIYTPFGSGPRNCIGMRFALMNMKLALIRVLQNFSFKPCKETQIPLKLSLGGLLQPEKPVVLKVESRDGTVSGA

- molecule: "O=C(O)c1cc(F)c2nc(N3[C@@H]4CC[C@H]3C[C@@H](OCc3c(-c5ccccc5OC(F)(F)F)noc3C3CC3)C4)sc2c1 [tropifexor, Tropifexor]"
  IC50 at 0.5 h, µM: 4.3

* * *

test: In vivo pharmacokinetic interaction study in Sprague-Dawley rats; details: male, Sprague-Dawley, rat, plasma, po, 25 mg/kg, group Crizotinib alone: single oral crizotinib 25 mg/kg, rat plasma, n = 5, mean ± S.D.

- compound: "C[C@@H](Oc1cc(-c2cnn(C3CCNCC3)c2)cnc1N)c1c(Cl)ccc(F)c1Cl [crizotinib, Crizotinib]"
  unit: "h"
  half-life: 6.83
- compound: "C[C@@H](Oc1cc(-c2cnn(C3CCNC(=O)C3)c2)cnc1N)c1c(Cl)ccc(F)c1Cl (some centres unmarked) [2-Keto crizotinib]"
  unit: "h"
  half-life: 4.82
